- Tgt: Metabotropic glutamate receptor 8 (Rattus norvegicus)
- Protocol summary: mGluR8 Gi/Go-coupled signaling modulation – cell-based, rat, thallium flux, HTS, primary screen (AID 488969)
- Experimental setup: HEK293 rat mGluR8, GIRK thallium flux, FluoZin2; at 10 µM; stronger effect = higher value; submaximal glutamate (EC20) added with thallium
Over roughly 110,000 compounds, “z-score” has its median near -0.1; the highest 2% begin near 2. The sample as a whole holds a higher share of the highest values than the screen did.
Rule: 1 (yes) for z-score not less than -0.1, 0 (no) for anything less.

In [3]: df
Out[3]:
                           structure_smiles  category
0  CCOc1ccc(CCNC(=O)C2CCN(C(=O)N(C)C)CC2)cc1OCC   1 (yes)
1  CCOC(=O)c1c(C)nc2c(c1-c1ccc(Cl)cc1)C(=O)CC(C)(C)C2    0 (no)
2  O=C(CSc1ccc(-c2ccc(F)cc2)nn1)N1CCN(c2ccccc2)CC1    0 (no)
3  O=C(CCn1c(=O)c2ccccc2n(CC(=O)NC2CCCC2)c1=O)NCc1ccco1    0 (no)

====

- Tgt: Metabotropic glutamate receptor 8 (Rattus norvegicus)
- Protocol summary: mGluR8 Gi/Go-coupled signaling modulation – cell-based, rat, thallium flux, HTS, primary screen (AID 488969)
- Experimental setup: HEK293 rat mGluR8, GIRK thallium flux, FluoZin2; at 10 µM; stronger effect = higher value; submaximal glutamate (EC20) added with thallium
In all, about 110,000 compounds were measured (“z-score”: median about -0.1, highest 2% from about 2 on). This is one part of a sample in which the highest values are shown more often than they occur.
Measured quantity: z-score

                                   molecule  endpoint_result
0                O=C(Cc1c(F)cccc1Cl)N1CCCC1            0.183
1  Cc1c(Br)c([N+](=O)[O-])nn1C(C)C(=O)NCc1cccs1 (stereo unspecified)           -0.152
2  CCCn1cc(NC(=O)C2CC(c3cccc(Br)c3)=NO2)cn1 (stereo unspecified)           -0.352
3  COc1ccc(S(=O)(=O)N2CCN(C(=O)c3ccco3)CC2)cc1OC            -0.51
4       COc1ccccc1NC(=O)CNS(=O)(=O)c1ccccc1           -0.239
5  CC(=O)c1cc2c(cc1NC(=O)CN1CCCCC1C)OCO2 (stereo unspecified)          -0.0192

====

- Tgt: Metabotropic glutamate receptor 8 (Rattus norvegicus)
- Protocol summary: mGluR8 Gi/Go-coupled signaling modulation – cell-based, rat, thallium flux, HTS, primary screen (AID 488969)
- Experimental setup: HEK293 rat mGluR8, GIRK (G protein-gated inwardly rectifying potassium channel) thallium flux, FluoZin2; at 10 µM; stronger effect = higher value; submaximal glutamate (EC20) added with thallium
Over roughly 110,000 compounds, “z-score” has its median near -0.1; the highest 2% begin near 2. What follows is part of a selection rich in the highest values, with near analogues and random picks from the rest.
Measured quantity: z-score

In [3]: df
Out[3]:
                                    compound  endpoint_result
 0  O=C(Nc1cccc(F)c1)C1CCN(C(=O)c2ccccc2Cl)CC1           -0.486
 1      Cc1ccsc1/C=N/n1c(-c2ccccn2)n[nH]c1=S           -0.121
 2  Cc1ccc(C(=O)c2cn[nH]c2-c2cc(Cl)ccc2O)cc1            -0.48
 3   Cc1ccc(-c2n[nH]c(=S)n2/N=C/c2cccn2C)cc1             1.02
 4       CN(C(=O)c1ccncc1)c1nnc(-c2cnccn2)s1           -0.251
 5   S=c1[nH]nc(-c2ccco2)n1/N=C/c1ccc(Cl)cc1          -0.0483
 6  CCC1CCCN1Cn1cnc2c([nH]c3ccc(OC)cc32)c1=O (configuration not stated)             6.77
 7     CC(C)(C)c1ccc(C(=O)NC(=S)Nn2cnnc2)cc1             3.11
 8  CCN1CCCC1Cn1cnc2c([nH]c3cc(OC)ccc32)c1=O (configuration not stated)           -0.271
 9             O=C(CCc1ccccc1)Nc1cc(Cl)ccc1O           -0.624
10       Cc1ccsc1/C=N/n1c(-c2ccco2)n[nH]c1=S            0.377
11  CCCCN(CCCC)C(=O)c1ccccc1NC(=O)CN1C(=O)c2ccccc2C1=O           -0.366
12  O=C1CC(c2cccc(F)c2)SC(N(c2ccccc2)c2ccccc2)=N1 (configuration not stated)           -0.127
13       Cc1cccc(C(=O)CC(=O)c2cc(Cl)ccc2O)c1             4.14
14  CCOC(=O)c1c(NC(=O)CSc2nncs2)sc(C)c1-c1ccccc1           -0.117
15  CCCCN(CCCC)CCn1cnc2c([nH]c3ccc(OC)cc32)c1=O            0.258
16            Cc1ccc(C(=O)CNc2cccc(Cl)c2)cc1          -0.0331
17                       c1ccc(CN2CCOCC2)cc1            0.378
18  CCOC(=O)c1c(C)n(-c2ccc(C)cc2)c2c(CC(C)=O)c(Br)c(OC)c(O)c12          -0.0818
19               Nc1ncnc2c1ncn2CCNCCc1ccccc1           -0.981
20    CCn1c(SCC(=O)Nc2ccccc2OC)nc2ccccc2c1=O           -0.373
21   Cc1ccc(/C=N/n2c(-c3ccncc3)n[nH]c2=S)cc1           0.0356
22       N#Cc1c(-c2ccncc2)c2c([nH]c1=S)CCCC2           -0.164
23   Cc1cccc(/C(N)=N/OC(=O)c2ccc(Cl)cc2Cl)c1           -0.137
24  O=C(C(=O)N1CCc2ccccc2C1)c1cn(CC(=O)N2CCCCC2)c2ccccc12           -0.582
25             CCCCn1c(S(=O)(=O)O)nc2ccccc21          -0.0451
26  CCn1cc(C(=O)N2CCN(Cc3ccc4c(c3)OCO4)CC2)c(=O)c2ccc(C)nc21           -0.451
27     S=c1[nH]nc(-c2ccco2)n1/N=C/c1ccccc1Cl             1.07
28  CN1CCOCCOCCN(C)C(=O)N2CCOCCOCCN(CCOCC2)C1=O             1.25
29  Cn1cccc1/C=N/n1c(-c2ccc(Cl)cc2Cl)n[nH]c1=S             2.46
30      S=c1[nH]nc(-c2ccncc2)n1/N=C/c1ccccc1         -0.00784
31  S=c1[nH]nc(-c2ccco2)n1/N=C/c1ccc(Cl)c(Cl)c1             1.59
32          O=C(CC(=O)c1cc(Cl)ccc1O)c1ccccc1             3.32
33  O=C(NCC(c1cccs1)N1CCOCC1)c1ccccc1NS(=O)(=O)c1ccc(Cl)cc1 (configuration not stated)           -0.359
34  CCCC(=O)O[C@@H]1C[C@@H](C)N(C(=O)c2ccccc2)c2ccc(C)cc21           -0.411
35          CCOc1ccccc1Nc1ncccc1C(=O)N1CCCC1              1.1
36  CC12CN(Cc3ccccc3)CC(C)(CN(Cc3ccccc3)C1)C2=NO              2.4
37                 COC(=O)c1sc(N)nc1C(C)(C)C           -0.167
38    Cc1ccc(/C=N/n2c(-c3cccs3)n[nH]c2=S)cc1               10
39  Cc1c(C(N)=O)sc2ncn(CC(=O)OC(C)C)c(=O)c12            0.619
40          CC(C)CCn1c(S(=O)(=O)O)nc2ccccc21             3.16
41  Cn1cccc1/C=N/n1c(-c2ccc(Cl)cc2)n[nH]c1=S             1.03
42  Cc1ccc2cccc(S(=O)(=O)Nc3c(C)n(C)n(-c4ccccc4)c3=O)c2n1          -0.0715
43  Cc1ccc(-c2n[nH]c(=S)n2/N=C/c2ccc(C)o2)cc1            -1.27
44                 CC(=O)C1CCN(Cc2ccccc2)CC1           -0.262
45  CCOc1ccc(-n2c(SCc3nc(-c4cccs4)no3)nnc2-c2ccncc2)cc1             7.31
46    Fc1ccc(/C=N/n2c(-c3cccs3)n[nH]c2=S)cc1             4.92
